# experimentSummary: enhancers of glutamate uptake in motor neurons, MN-1 cell line (AID 1612);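 also: tested at 1 µM final; 0% = mean of DMSO vehicle wells on each plate; positive means more glutamate uptake than control and negative means less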
# conditionLabel: MN-1 motor neuron cells, stronger effect = higher value
metricName: glutamate uptake change (%)
Quick note: give the figure in %, leave out the unit.

CSCCC(N)C(=O)NC(CC(C)C)C(=O)NC(Cc1ccccc1)C(=O)O (stereo not given)
4.95

Request: Look up glutamate uptake change for this molecule: "NC(=O)c1ccc[n+]([C@@H]2O[C@H](COP(=O)([O-])OP(=O)(O)OC[C@H]3O[C@@H](n4cnc5c(N)ncnc54)[C@H](OP(=O)(O)O)[C@@H]3O)[C@@H](O)[C@H]2O)c1"
Response: 16.5

Request: Which glutamate uptake change value is on record for "CN(C)CCN(Cc1cccs1)c1ccccn1" ?
Response: -6.5

Request: I am curious: what glutamate uptake change value has been reported for "NC(N)=NCCC[C@@H](NC(=O)[C@@H](N)Cc1ccc(O)cc1)C(=O)O" ?
Response: 17.2

Request: Dear colleague, I am looking for the recorded glutamate uptake change of the following molecule: "CN(N=O)C(=O)N[C@@H]1[C@@H](O)[C@H](O)[C@@H](CO)O[C@@H]1O"
Response: -14.8

Request: What does the data say about its glutamate uptake change? Entry: C=NC(C(=O)NC1C(=O)N2C1SC(C)(C)C2C(=O)O)c1ccccc1 (stereo not given)
Response: 4.77

---

# target: Calcium-activated potassium channel subunit alpha-1 (Homo sapiens) + Leucine-rich repeat-containing protein 26 (Homo sapiens) (UniProt Q12791+Q2I0M4)
# Sequence (Q2I0M4 whole entry, looked up, one chain of several): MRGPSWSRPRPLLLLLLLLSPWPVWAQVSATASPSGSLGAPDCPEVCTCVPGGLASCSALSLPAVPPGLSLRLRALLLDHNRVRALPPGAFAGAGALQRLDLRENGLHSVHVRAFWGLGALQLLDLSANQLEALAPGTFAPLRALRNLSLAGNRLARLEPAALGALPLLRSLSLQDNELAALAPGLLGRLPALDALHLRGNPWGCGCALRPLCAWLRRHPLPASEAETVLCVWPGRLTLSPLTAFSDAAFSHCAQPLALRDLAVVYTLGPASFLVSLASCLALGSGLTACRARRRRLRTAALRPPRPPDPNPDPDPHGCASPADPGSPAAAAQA
# experimentSummary: modulators of BK channel variants, profiling panel, selectivity assay, cell-based, U2OS BacMam, thallium flux, beta subunits (AID 1259406);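 also: initial slope of Thallos dye fluorescence rise after thallium is added; log ratio against the mean of 0.3% DMSO vehicle wells on the same plate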
# conditionLabel: F380Y/Slo1WT/gamma1, at 30 µM
// map log fold change Tl+ flux onto a label; ranges band 1: < 0.02; band 2: ≥ 0.02 and < 0.04; band 3: ≥ 0.04

Nc1ccn([C@@H]2O[C@H](CO)[C@@H](O)C2O)c(=O)n1 (some centres not stated)
band 2
CN(C)c1nc(N(C)C)nc(N(C)C)n1
band 1
CC(C)NCC(O)COc1ccc(CC(N)=O)cc1 (configuration not stated)
band 1
CCn1cc(C(=O)O)c(=O)c2ccc(C)nc21
band 2
CC1(C)SC2C(NC(=O)COc3ccccc3)C(=O)N2C1C(=O)O (configuration not stated)
band 1

Request: Which log fold change Tl+ flux band matches CC(C)NCC(O)COc1cccc2[nH]ccc12 (configuration not stated) ?
Response: band 2

Request: Lab log: "O=C(O)CCc1nc(-c2ccccc2)c(-c2ccccc2)o1" — assign log fold change Tl+ flux category
Response: band 2

Request: // return the class label for "CC(C)n1c(/C=C/[C@@H](O)C[C@@H](O)CC(=O)O)c(-c2ccc(F)cc2)c2ccccc21"
Response: band 3

Request: Tag the class for CNCCC(Oc1ccc(C(F)(F)F)cc1)c1ccccc1 (configuration not stated)
Response: band 3

Request: For the record CC(C)[N+]1(C)C2CCC1CC(OC(=O)C(CO)c1ccccc1)C2 (configuration not stated) , report the class its log fold change Tl+ flux corresponds to.
Response: band 3

Request: Sort CCCC(=O)Nc1ccc(OCC(O)CNC(C)C)c(C(C)=O)c1 (configuration not stated) into one of the categories.
Response: band 1

Request: GET /class?item= "O=[N+]([O-])c1cccc2cn[nH]c12"
Response: band 2

---

Reported viability by item:
# experimentSummary: ovarian cancer cell viability with rucaparib, profiling panel, oncology-focused library, rucaparib conditional (AID 1508598)
# conditionLabel: patient-derived ovarian cancer cells, CellTiter-Glo viability, 144 h; at 0.313 µM; OCI-C5x cells; without rucaparib; stronger effect = lower value
Return type: number; implicit unit %.

O=C(O[C@@H]1Cc2c(O)cc(O)cc2O[C@@H]1c1cc(O)c(O)c(O)c1)c1cc(O)c(O)c(O)c1
120
FC(F)c1nc2ccccc2n1-c1nc(N2CCOCC2)nc(N2CCOCC2)n1
111
COc1c(C)c2c(c(O)c1C/C=C(\C)CCC(=O)OCCN1CCOCC1)C(=O)OC2
147
CC/C(=C(\c1ccccc1)c1ccc(OCCN(C)C)cc1)c1ccccc1
95.3

Request: Name the recorded viability for "CNC(=O)c1cc(Oc2ccc(NC(=O)Nc3ccc(Cl)c(C(F)(F)F)c3)cc2)ccn1" .
Response: 116

Request: For the compound "O=C(NOCC1CC1)c1ccc(F)c(F)c1Nc1ccc(I)cc1Cl" , what viability is on record?
Response: 119

Request: Returns the measured viability for the input compound. Input: Nc1cccc2c1CN(C1CCC(=O)NC1=O)C2=O (centres undefined)
Response: 117

Request: Look up viability for this compound: "O=C(CCc1ccc(O)cc1)c1c(O)cc(O)cc1O"
Response: 117

---

# experimentSummary: ICB984 medulloblastoma cell growth inhibition, synergistic combos for chromothripsis tumors, cisplatin or BGB combos (AID 1671451);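 also: cells exposed for 96 hours before readout; 0% = vehicle DMSO and 100% = killing by high DMSO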
# conditionLabel: ICB984 medulloblastoma cells, drug combinations, measured here: 5 uM single agent, at 5 µM, stronger effect = higher value
The compounds listed here are annotated with their inhibition.

Record excerpt, results attached:
CC1(C(=O)O)CCC2(C)CCC3(C)C(=CC(=O)C4C5(C)CCC(OC(=O)CCC(=O)O)C(C)(C)C5CCC43C)C2C1 (centres undefined)
-21.7%
COC1C(OC(N)=O)C(O)C(Oc2ccc3c(O)c(NC(=O)c4ccc(O)c(CC=C(C)C)c4)c(=O)oc3c2C)OC1(C)C (centres undefined)
-16.3%
CN1CCN(c2c(F)cc3c(=O)c(C(=O)O)cn(CCF)c3c2F)CC1
-20.3%

Now look at this entry.
Request: Data request, read-out inhibition, for "O=c1[nH]c(=O)n([C@H]2C[C@H](O)[C@@H](CO)O2)cc1Br"
Response: -6.23%

---

# experimentSummary: ovarian cancer cell viability with rucaparib, profiling panel, oncology-focused library, rucaparib conditional (AID 1508598)
# conditionLabel: patient-derived ovarian cancer cells, CellTiter-Glo viability, 144 h; at 0.00488 µM; OCI-P5x cells; with rucaparib 20 µM; stronger effect = lower value; 100% = cells with rucaparib alone
metricName: viability (%)
The reply should contain only the number, in %.

Example results:
COc1cc(Nc2c(C#N)cnc3cc(OCCCN4CCN(C)CC4)c(OC)cc23)c(Cl)cc1Cl
101
CNC(=O)c1cc(Oc2ccc(NC(=O)Nc3ccc(Cl)c(C(F)(F)F)c3)cc2)ccn1
136
O=C(CCCCCCC(=O)Nc1ccccc1)NO
109

Request: Please report the recorded viability for "O=C(O[C@@H]1Cc2c(O)cc(O)cc2O[C@@H]1c1cc(O)c(O)c(O)c1)c1cc(O)c(O)c(O)c1" .
Response: 90.4

Request: Can you share its viability? I mean this molecule: "Cc1ccc(-n2nc(C(C)(C)C)cc2NC(=O)Nc2ccc(OCCN3CCOCC3)c3ccccc23)cc1"
Response: 91.6

---

This section presents compounds with their documented viability values.
# experimentSummary: ovarian cancer cell viability with rucaparib, profiling panel, oncology-focused library, rucaparib conditional (AID 1508598)
# conditionLabel: patient-derived ovarian cancer cells, CellTiter-Glo viability, 144 h; at 0.0781 µM; OCI-P5x cells; without rucaparib; stronger effect = lower value
Give a bare numeral; the unit % is implied.

Example results:
COc1c(C)c2c(c(O)c1C/C=C(\C)CCC(=O)OCCN1CCOCC1)C(=O)OC2
87.7
Clc1ccc(Nc2nnc(Cc3ccncc3)c3ccccc23)cc1
95.5
COc1nc(N)nc2c1ncn2[C@@H]1O[C@H](CO)[C@@H](O)[C@@H]1O
101
CC(C)n1c(/C=C/[C@@H](O)C[C@@H](O)CC(=O)O)c(-c2ccc(F)cc2)c2ccccc21
31
CCN(CC)CCNC(=O)c1c(C)[nH]c(/C=C2\C(=O)Nc3ccc(F)cc32)c1C
99.9
COc1cc2ncnc(Nc3ccc(F)c(Cl)c3)c2cc1OCCCN1CCOCC1
100
CN(N=O)C(=O)N[C@@H]1[C@@H](O)[C@H](O)[C@@H](CO)O[C@@H]1O
112
Nc1ncn([C@H]2C[C@H](O)[C@@H](CO)O2)c(=O)n1
88.3

Request: Using the record for "O=C(CCCCCCC(=O)Nc1ccccc1)NO" , report its viability.
Response: 83

Request: Entry "C#Cc1cccc(Nc2ncnc3cc(OCCOC)c(OCCOC)cc23)c1" has what viability?
Response: 99

---

# experimentSummary: sensitizers of A549 cells to miR-34 induction, primary screen, imaging, A549 dox-inducible miR-34, nuclei and caspase counts (AID 1347080)
# conditionLabel: A549 miR-34 inducible, Hoechst nuclei count, 48 h; measured here: relative caspase fold change +Dox/-Dox
metricName: fold change
Write no unit; give the number alone.

Reference set, count: 4
C[N+]1(C)[C@@H]2CC[C@H]1CC(OC(=O)C(O)c1ccccc1)C2 (stereo not given in full)
0.48
NC(=O)c1cc[n+](CC2=C(C(=O)[O-])N3C(=O)[C@@H](NC(=O)Cc4cccs4)[C@H]3SC2)cc1
0.479
Cn1nnnc1SCC1=C(C(=O)O)N2C(=O)C(NC(=O)C(OC=O)c3ccccc3)C2SC1 (stereo not given)
2.94
O=C1O[C@H]([C@@H](O)CO)C(O)=C1O
1.22

// next item, fold change requested
Request: I am curious: what fold change value has been reported for "CC(C)Nc1cccnc1N1CCN(C(=O)c2cc3cc(NS(C)(=O)=O)ccc3[nH]2)CC1" ?
Response: 1.31
